target system: T1, NP-1/Fc (Neuropilin-1/Fc, R&D Systems)
T1 construct: Bought reagent; also called Npn-1
T1 sequence (Q9QWJ9 22-855): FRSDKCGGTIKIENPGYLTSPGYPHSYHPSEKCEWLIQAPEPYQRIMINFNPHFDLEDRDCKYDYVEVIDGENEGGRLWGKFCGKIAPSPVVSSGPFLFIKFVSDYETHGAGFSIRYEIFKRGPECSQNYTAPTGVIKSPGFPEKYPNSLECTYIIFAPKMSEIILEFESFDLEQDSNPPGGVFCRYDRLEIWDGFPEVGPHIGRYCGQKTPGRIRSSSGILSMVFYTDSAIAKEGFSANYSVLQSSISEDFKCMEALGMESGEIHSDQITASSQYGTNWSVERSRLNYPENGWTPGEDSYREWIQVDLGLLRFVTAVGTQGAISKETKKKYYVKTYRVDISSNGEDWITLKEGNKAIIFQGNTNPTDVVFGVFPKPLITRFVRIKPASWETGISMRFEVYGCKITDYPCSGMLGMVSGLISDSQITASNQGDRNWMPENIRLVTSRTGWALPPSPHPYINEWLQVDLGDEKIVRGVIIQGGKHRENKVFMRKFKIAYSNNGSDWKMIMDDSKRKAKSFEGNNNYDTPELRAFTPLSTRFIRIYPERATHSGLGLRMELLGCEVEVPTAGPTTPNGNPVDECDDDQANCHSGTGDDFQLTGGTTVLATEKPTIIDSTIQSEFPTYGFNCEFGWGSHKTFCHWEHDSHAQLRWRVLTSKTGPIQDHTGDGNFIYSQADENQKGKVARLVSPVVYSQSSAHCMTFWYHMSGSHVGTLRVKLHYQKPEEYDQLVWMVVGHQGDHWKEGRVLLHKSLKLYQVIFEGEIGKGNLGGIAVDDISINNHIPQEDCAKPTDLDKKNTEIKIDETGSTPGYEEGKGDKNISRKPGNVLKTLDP
method summary: competition of 125I-VEGF165 binding to plate-coated NP-1/Fc
No end group written: not given here. Oregon Green (5-isomer) = Oregon Green fluorescent label, 5-isomer
measure: IC50 (nM)

Recorded IC50, per entry:
binder	units of measure	IC50
TKPPR-OH (not fully specified (N-terminus); printed as OG-(TKPPR)4; also: tetramer: four TKPPR chains joined via branched tetra-acid scaffold, free C-terminal Arg on each arm; also called tetrameric TKPPR) [TKPPR tetramer BRU-326, OG-(TKPPR)4]	nM	130
VEGF165 (ligand, UniProt P15692-4 27-191, looked up, 125I label on the radioligand form, Labelled and unlabelled forms and the different suppliers are kept as one molecule; also called unlabeled VEGF165) APMAEGGGQNHHEVVKFMDVYQRSYCHPIETLVDIFQEYPDEIEYIFKPSCVPLMRCGGCCNDEGLECVPTEESNITMQIMRIKPHQGQHIGEMSFLQHNKCECRPKKDRARQENPCGPCSERRKHLFVQDPQTCKCSCKNTDSRCKARQLELNERTCRCDKPRR	nM	0.5

[A] {Oregon Green (5-isomer)}-GTKPPR-OH (also called OG-TKPPR; OG-TKPPR monomer) [BRU-239, Oregon Green (5-isomer)-GTKPPR-OH]
[B] TKPPR (not fully specified (N-terminus); printed as OG-(TKPPR)2; also: dimer on branched scaffold with one Oregon Green label) [TKPPR dimer BRU-317, OG-(TKPPR)2]
[C] TKPPR-OH (also called BRU-95; TKPPR-OH) [TKPPR (L-threonyl-L-lysyl-L-prolyl-L-prolyl-L-arginine), free monomeric peptide]
q: List these items ordered by IC50, big to small. Please respond by ranking the labels in the order requested.
a: C, A, B
(C: 43000 nM, A: 30000 nM, B: 3000 nM)
